Assign Bliss excess to each entry below.
Test system: BT-20 (Breast Carcinoma)
ASSAY_TEXT: Bliss excess, mean over the matrix (fraction); higher = more synergy;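 further: after 72 h of two-drug dosing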
Numbers only.

Example cases with answers are listed next.
# COMPOUND, PROPERTY, ASSAY_VALUE
records = [
    ("Cc1cc2ncnn2cc1Nc1ncc2c(n1)n(C1CCOCC1)c(=O)n2C [AZD7648] + CCN(CCO)CCCOc1ccc2c(Nc3cc(CC(=O)Nc4cccc(F)c4)[nH]n3)ncnc2c1 [AZD2811] (first compound max 10 µM, 7x7, partner max 1 µM)", "Bliss excess", -0.0432),
    ("CCN(CCO)CCCOc1ccc2c(Nc3cc(CC(=O)Nc4cccc(F)c4)[nH]n3)ncnc2c1 [AZD2811] + C[C@@H]1COCCN1C2=NC(=NC(=C2)C3(CC3)[S@](=N)(=O)C)C4=C5C=CNC5=NC=C4 [AZD6738] (first compound max 1 µM, 7x7, partner max 10 µM)", "Bliss excess", -0.0356),
    ("C[C@@H](c1ccc2nccn2c1)n1nnc2ncc(-c3cnn(C)c3)nc21 [Savolitinib] + CN(CC[C@H](CSC1=CC=CC=C1)NC2=C(C=C(C=C2)S(=O)(=O)NC(=O)C3=CC=C(C=C3)N4CCC(CC4)[C@H](C5=CC=CC=C5C6=CC=C(C=C6)Cl)O)S(=O)(=O)C(F)(F)F)CCO [AZD4320] (first compound max 1 µM, 7x7, partner max 1 µM)", "Bliss excess", -0.0084),
    ("CC1(C)CCC(CN2CCN(c3ccc(C(=O)NS(=O)(=O)c4ccc(NCC5CCOCC5)c([N+](=O)[O-])c4)c(Oc4cnc5[nH]ccc5c4)c3)CC2)=C(c2ccc(Cl)cc2)C1 [Venetoclax] + C=CCn1c(=O)c2cnc(Nc3ccc(N4CCN(C)CC4)cc3)nc2n1-c1cccc(C(C)(C)O)n1 [AZD1775] (first compound max 1 µM, partner max 1 µM)", "Bliss excess", -0.0076),
    ("Cc1c2c(nn1C)CSCc1cc(n(C)n1)CSc1cc(c3ccccc3c1)OCCCc1c(C(=O)O)n(C)c3c-2c(Cl)ccc13 [AZD5991] + C=CCn1c(=O)c2cnc(Nc3ccc(N4CCN(C)CC4)cc3)nc2n1-c1cccc(C(C)(C)O)n1 [AZD1775] (first compound max 1 µM, partner max 1 µM)", "Bliss excess", -0.02),
    ("Cc1c2c(nn1C)CSCc1cc(n(C)n1)CSc1cc(c3ccccc3c1)OCCCc1c(C(=O)O)n(C)c3c-2c(Cl)ccc13 [AZD5991] + CN(C)CCCOc1ccc(-c2ccc3ncc4c(c3c2)n(C2CCOCC2)c(=O)n4C)cn1 [AZD0156] (first compound max 1 µM, 7x7, partner max 1 µM)", "Bliss excess", 0.0258),
]

From here, focus on the item given below.
Query string: Suppose we examine the compound CN(C)CCCOc1ccc(-c2ccc3ncc4c(c3c2)n(C2CCOCC2)c(=O)n4C)cn1 [AZD0156] + C=CCn1c(=O)c2cnc(Nc3ccc(N4CCN(C)CC4)cc3)nc2n1-c1cccc(C(C)(C)O)n1 [AZD1775] (first compound max 1 µM, partner max 1 µM) ; what Bliss excess value has been reported?
Result string: -0.0937

----------
System: KLE (Endometrial Carcinoma)
ASSAY_TEXT: Bliss excess, mean over the matrix (fraction); higher = more synergy
Assign Bliss excess to each entry below.
Numbers only.

# COMPOUND, SYSTEM_NAME, Bliss excess
data = [
    ("CC1(C)CCC(CN2CCN(c3ccc(C(=O)NS(=O)(=O)c4ccc(NCC5CCOCC5)c([N+](=O)[O-])c4)c(Oc4cnc5[nH]ccc5c4)c3)CC2)=C(c2ccc(Cl)cc2)C1 [Venetoclax] + C[C@@H]1COCCN1C2=NC(=NC(=C2)C3(CC3)[S@](=N)(=O)C)C4=C5C=CNC5=NC=C4 [AZD6738] (first compound max 1 µM, 7x7, partner max 10 µM)", "KLE (Endometrial Carcinoma)", -0.0538),
    ("CN(C)CCCOc1ccc(-c2ccc3ncc4c(c3c2)n(C2CCOCC2)c(=O)n4C)cn1 [AZD0156] + O=C(c1cc(Cc2n[nH]c(=O)c3ccccc23)ccc1F)N1CCN(C(=O)C2CC2)CC1 [Olaparib] (first compound max 3 µM, partner max 3 µM)", "KLE (Endometrial Carcinoma)", -0.0506),
]

Query string: Suppose we examine the compound NC1(C(=O)N[C@@H](CCO)c2ccc(Cl)cc2)CCN(c2ncnc3[nH]ccc23)CC1 [Capivasertib] + Cn1cnc2c(F)c(Nc3ccc(Br)cc3Cl)c(C(=O)NOCCO)cc21 [Selumetinib] (first compound max 10 µM, 7x7, partner max 10 µM) ; what Bliss excess value has been reported?
Result string: -0.011
